test system: E. coli; test: Inhibition of E. coli proliferation after IPTG induction of antisense clones (liquid growth curves, dilution spotting on plates); format: cell-based, Escherichia coli; details: 1 mM IPTG
quantityName: effect of antisense expression on E. coli growth after IPTG induction

>  <molecule>
EcXA082: antisense clone insert, E. coli genes hybC; hybB (nucleic acid, listed as Escherichia coli) DNA: TGCTTTGCTCGCCTCATGACGATTATGATCGTTTTGTTTTAAAGGAGGAAGTATCGGCAGTAGACGAATGAGTACGATGTAAGCGCAAATCTCAATAGCCACAAAACCAATAGAAATCAACAGTTCTTCCCAGGTCGGGAAGTA

>  <reportedValue>
reduction in cell growth

$$$$
>  <molecule>
EcXA104: antisense clone insert, E. coli gene hsdS (nucleic acid, listed as Escherichia coli) DNA: GACGCGGCGAACGATTTCGGCTTGTTCTTTTACTGGAGGTAATAAAACAACTTGGGATTTGATATCTTTTCCTGAAATACCTTTTTGACCAGAAGTTGTTTTCACGCAGTTCATCATTGCATTTCGTGCTGAGGGGGATGAAAAAAATATTTCGATATATTCTGGTAAAGCATCTTT

>  <reportedValue>
reduction in cell growth

$$$$
>  <molecule>
EcXA083: antisense clone insert, E. coli gene hrpB (nucleic acid, listed as Escherichia coli) DNA: CGGCTTAGCGCGTCGTTGGCATCGAGCATCGCTCCCATGCCGTTTGCCAGTTGATAGCGTCCATCTTGCC

>  <reportedValue>
reduction in cell growth

$$$$
>  <molecule>
EcXA072: antisense clone insert, E. coli gene recJ (nucleic acid, listed as Escherichia coli) DNA: GATTTTTACCGGATTAATTTTAAACATGGTCTGATTTCTTTTATTGAGCTAGTCAAAATGCGGTGATAAGAGCGGGATTGTCCCAATCCACGCTCTTTTTTATAGAGAAGATGACGCTAAATTGGCCAGATATTGTCGATGATAATTTG

>  <reportedValue>
reduction in cell growth

$$$$
